experimental.details: Cytotoxicity, XTT assay
Type: cell-based
study.conditions: human, mock-infected TZM-bl cells
quantity.name: CC50 at 4 days

Give reported CC50 at 4 days value for "Cc1cc(/C=C/C#N)cc(C)c1Oc1nc(NC2CCN(Cc3ccc(S(C)(=O)=O)cc3)CC2)nc2ncccc12" > 44 nM

Item Cc1cc(/C=C/C#N)cc(C)c1Nc1ccnc(Nc2ccc(C#N)cc2)n1 [RPV, Rilpivirine, reference compound] : provide CC50 at 4 days > 341 nM
